Collected IC50 values appear next to each entry.
Target: DNA-PK phosphorylation at Serine 2056 (Homo sapiens, UniProt P78527)
Construct: host or cells: FaDu
Experiment: Cellular Assay for Inhibition of DNA-PK Phosphorylation at Serine 2056 (FaDu cells, neocarzinostatin, sandwich ELISA)
Type: cell-based
Conditions: Table 1

compound: CS(=O)(=O)Nc1cnc2cc(N3CCOCC3)nc(O[C@H]3CC[C@@H](Nc4ncccn4)CC3)c2c1
experimentalSystem: DNA-PK phosphorylation at Serine 2056 (Homo sapiens, UniProt P78527)
IC50: < 100 nM
--
compound: O=C(N[C@H]1CC[C@@H](Oc2nc(N3CCOCC3)cc3ncccc23)CC1)c1ccncc1
experimentalSystem: DNA-PK phosphorylation at Serine 2056 (Homo sapiens, UniProt P78527)
IC50: < 100 nM
--
compound: FC(F)(F)c1ccnn1[C@H]1CC[C@@H](Oc2nc(N3CCOCC3)cc3ncccc23)CC1 [Compound 17d]
experimentalSystem: DNA-PK phosphorylation at Serine 2056 (Homo sapiens, UniProt P78527)
IC50: 100 to 1000 nM
--
compound: c1cnc2cc(N3CCOCC3)nc(O[C@H]3CC[C@@H](Nc4ncc5[nH]ccc5n4)CC3)c2c1
experimentalSystem: DNA-PK phosphorylation at Serine 2056 (Homo sapiens, UniProt P78527)
IC50: < 100 nM
--
compound: O=C(N[C@H]1CC[C@@H](Oc2nc(N3CCOCC3)cc3ncccc23)CC1)c1scnc1Cl
experimentalSystem: DNA-PK phosphorylation at Serine 2056 (Homo sapiens, UniProt P78527)
IC50: 100 to 1000 nM
--
compound: O=C(N[C@H]1CC[C@@H](Oc2nc(N3CCOCC3)cc3ncccc23)CC1)c1ccccn1
experimentalSystem: DNA-PK phosphorylation at Serine 2056 (Homo sapiens, UniProt P78527)
IC50: 100 to 1000 nM
--
compound: O=C(N[C@H]1CC[C@@H](Oc2nc(N3CCOCC3)cc3ncccc23)CC1)C1CCCO1 (some centres unmarked)
experimentalSystem: DNA-PK phosphorylation at Serine 2056 (Homo sapiens, UniProt P78527)
IC50: 1000 to 10000 nM
--
compound: Brc1cnc2cc(N3CCOCC3)nc(O[C@H]3CC[C@@H](Nc4ncccn4)CC3)c2c1 [Compound 18a]
experimentalSystem: DNA-PK phosphorylation at Serine 2056 (Homo sapiens, UniProt P78527)
IC50: 100 to 1000 nM

====

Molecular target: pDNA-PK ser2056 induction in HCT116 spheroids (Homo sapiens)
Construct: endogenous in cells; host or cells: HCT116 multicellular tumour spheroids
Test: Multicellular tumour spheroid + radiation, pDNA-PK inhibition, HCT116
Assay type: cell-based
Details: Example 9 Study 2; 20 Gy; 20% O2; read-out: Spheroid Cell line: HCT116 Immunohistochemical endpoint pDNA-PK inhibition EC50
Procedure: Multicellular tumour spheroids determination of compound inhibition of pDNA-PK induction following radiation. […] Multicellular tumour spheroids determination of compound inhibition of pDNA-PK induction following radiation. […] For cell survival endpoint 8 Gy radiation was used and 3 hours following radiation spheroids were dissociated, counted and plated for colony forming endpoint. […]
pEC50: −log10 of the molar value.
pEC50 values by entry

smilesText: O=C(N[C@H]1CC[C@@H](Oc2nc(N3CCOCC3)cc3ncccc23)CC1)c1cc[nH]n1
experimentalSystem: pDNA-PK ser2056 induction in HCT116 spheroids (Homo sapiens)
pEC50: 6.00 to 6.30
--
smilesText: Cc1cnc(N[C@H]2CC[C@@H](Oc3nc(N4CCOCC4)cc4ncccc34)CC2)nc1
experimentalSystem: pDNA-PK ser2056 induction in HCT116 spheroids (Homo sapiens)
pEC50: 5.00 to 6.00
--
smilesText: Clc1cnc(N[C@H]2CC[C@@H](Oc3nc(N4CCOCC4)cc4ncccc34)CC2)nc1
experimentalSystem: pDNA-PK ser2056 induction in HCT116 spheroids (Homo sapiens)
pEC50: 5.00 to 6.00
--
smilesText: O=C(N[C@H]1CC[C@@H](Oc2nc(N3CCOCC3)cc3ncccc23)CC1)c1ccccn1
experimentalSystem: pDNA-PK ser2056 induction in HCT116 spheroids (Homo sapiens)
pEC50: 5.00 to 6.00
--
smilesText: CN(C)c1ccnc(N[C@H]2CC[C@@H](Oc3nc(N4CCOCC4)cc4ncccc34)CC2)n1
experimentalSystem: pDNA-PK ser2056 induction in HCT116 spheroids (Homo sapiens)
pEC50: 5.00 to 6.00
